Values from patent US11247998B2

For each record, write down the corresponding EC50.
Tested on: HBV DNA replication in HepG2.2.15 cells
measurement protocol: In vitro anti-HBV activity test (quantitative assay of intracellular HBV DNA), HepG2.2.15 cells, quantitative PCR
Format: cell-based, hepatitis B virus (HBV)
condition summary: Hepatitis B virus, HBV DNA by quantitative PCR, compound treatment Day 2 to Day 8
Include the unit after the number when you answer.

Returns the measured EC50 for the input compound. Input: C[C@H]1Cn2cnc(C(=O)NC3(C)CC3)c2CN1C(=O)Nc1ccc(F)c(C#N)c1 [Example 48] 93 nM

Item C[C@H]1Cn2cnc(C(=O)N3CCCC3)c2CN1C(=O)Nc1ccc(F)c(F)c1 [Example 59, reference compound] has what recorded EC50? 5270 nM

Look at this compound and give its reported EC50. C[C@H]1Cn2cnc(C(=O)N[C@H](C)C(F)(F)F)c2CN1C(=O)Nc1ccc(F)c(F)c1 [Example 6] 4 nM

What does the data say about its EC50? Entry: C[C@H]1Cn2cnc(C(=O)N[C@H](C)C(F)(F)F)c2CN1C(=O)Nc1ccc(F)c(C#N)c1 [Example 11] 18 nM
